Hi there, I'd appreciate the recorded Chemical stability at 37° C. (% polymer/week), insulin solution of 3 mM for every entry that follows.
- test_system: human insulin (Homo sapiens)
- Construct: Insulin derivatives having truncations in the C-terminal of the B-chain; deamidations at A18, A21 and B3
- Sequence (P01308 25-54 limits assumed): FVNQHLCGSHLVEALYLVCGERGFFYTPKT
- Sequence (P01308 90-110 limits assumed): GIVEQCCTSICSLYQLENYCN
- assay_notes: Chemical stability at 37° C.: covalent insulin polymer by size exclusion chromatography
- Assay type: physicochemical
- measurement_setup: example 1, 3 mM insulin, stabiliser equimolar to insulin, 0.5 Zn2+/insulin, NaCl 15 mM, glycylglycine 7 mM, tween 20 0.01%, pH 7.5
The answer is to be given in % polymer/week; state only the numeric part.

INPUT: Which Chemical stability at 37° C. (% polymer/week), insulin solution of 3 mM value is on record for CC1(C)C2CCC1(C)C(O)C2 (single isomer, unassigned; (-)) [(−)-borneol] ?
OUTPUT: 0.43

INPUT: Moving on to CC1(C)[C@H]2CC[C@](C)(C2)[C@H]1O [(+)-fenchol]
OUTPUT: 0.50

INPUT: Moving on to Oc1ccccc1
OUTPUT: 0.37

INPUT: Moving on to CC1(C)C2CCC1(C)C(O)C2 (single isomer, unassigned; (+)) [(+)-borneol]
OUTPUT: 0.47

----------
- test_system: human insulin (Homo sapiens)
- Construct: Insulin derivatives having truncations in the C-terminal of the B-chain; deamidations at A18, A21 and B3
- assay_notes: Chemical stability at 37° C.: covalent insulin polymer by size exclusion chromatography
- Type: physicochemical
- measurement_setup: example 1, 15 mM insulin, stabiliser equimolar to insulin, 0.5 Zn2+/insulin, NaCl 15 mM, glycylglycine 7 mM, tween 20 0.01%, pH 7.5
attribute_measured: Chemical stability at 37° C. (% polymer/week), insulin solution of 15 mM
The answer is to be given in % polymer/week; state only the numeric part.

INPUT: Which Chemical stability at 37° C. (% polymer/week), insulin solution of 15 mM value is on record for Oc1ccccc1 ?
OUTPUT: 0.39

INPUT: Moving on to CC1(C)[C@H]2CC[C@](C)(C2)[C@H]1O [(+)-fenchol]
OUTPUT: 0.97

INPUT: Moving on to CC1(C)C2CCC1(C)C(O)C2 (single isomer, unassigned; (-)) [(−)-borneol]
OUTPUT: 0.47

INPUT: Moving on to CC1(C)C2CCC1(C)C(O)C2 (single isomer, unassigned; (+)) [(+)-borneol]
OUTPUT: 0.61
